Origin of measurements: paper PMC9963659

outcome.measure: melting point

See these solved cases before continuing.
CCNC(=S)NN=C(C)c1cccc(NS(=O)(=O)c2c[nH]c(=S)[nH]c2=O)c1 [Compound 5b] :: 310 to 312 °C
O=C(CBr)c1cccc(NS(=O)(=O)c2c[nH]c(=S)[nH]c2=O)c1 [Compound 8] :: 305 to 307 °C
Cc1cccc(-c2cc(-c3cccc(NS(=O)(=O)c4c[nH]c(=S)[nH]c4=O)c3)nc(N)c2C#N)c1 [Compound 7d] :: 264 to 266 °C

Record O=c1[nH]c(=S)[nH]cc1S(=O)(=O)Nc1cccc(-c2csc(NN=Cc3cccc([N+](=O)[O-])c3)n2)c1 [Compound 9a] , field melting point: 316 to 318 °C

---

Data export: IC50 values recorded with Soybean 15-LOX enzyme (Glycine max, UniProt P08170).
Sequence (P08170 whole entry): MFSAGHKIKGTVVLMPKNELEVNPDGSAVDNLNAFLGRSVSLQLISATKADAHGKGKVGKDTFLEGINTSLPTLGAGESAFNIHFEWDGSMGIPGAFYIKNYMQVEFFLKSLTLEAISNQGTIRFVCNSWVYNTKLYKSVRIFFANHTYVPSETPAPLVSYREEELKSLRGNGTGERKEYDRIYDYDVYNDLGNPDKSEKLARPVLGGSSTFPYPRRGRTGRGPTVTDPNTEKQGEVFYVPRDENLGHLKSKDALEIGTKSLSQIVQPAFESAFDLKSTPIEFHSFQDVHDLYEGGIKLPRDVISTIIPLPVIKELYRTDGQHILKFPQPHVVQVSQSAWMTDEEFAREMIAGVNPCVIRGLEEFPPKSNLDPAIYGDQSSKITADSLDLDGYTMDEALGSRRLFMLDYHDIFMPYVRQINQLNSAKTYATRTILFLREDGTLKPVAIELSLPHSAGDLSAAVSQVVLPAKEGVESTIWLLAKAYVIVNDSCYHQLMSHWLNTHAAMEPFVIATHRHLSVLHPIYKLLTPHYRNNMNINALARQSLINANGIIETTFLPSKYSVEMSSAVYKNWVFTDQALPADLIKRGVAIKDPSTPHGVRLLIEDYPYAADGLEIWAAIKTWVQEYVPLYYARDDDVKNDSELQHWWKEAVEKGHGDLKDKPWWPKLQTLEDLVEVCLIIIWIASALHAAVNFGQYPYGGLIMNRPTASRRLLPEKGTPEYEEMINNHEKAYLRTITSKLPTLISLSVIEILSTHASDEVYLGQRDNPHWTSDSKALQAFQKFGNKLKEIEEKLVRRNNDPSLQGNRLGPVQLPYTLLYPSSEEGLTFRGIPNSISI
Answer with a number only, understood to be in µM.

CNC(=S)NN=C(C)c1cccc(NS(=O)(=O)c2c[nH]c(=S)[nH]c2=O)c1 :: 5.79
Cc1cccc(C=NNc2nc(-c3cccc(NS(=O)(=O)c4c[nH]c(=S)[nH]c4=O)c3)cs2)c1 :: 2.5

The compound `O=c1[nH]c(=S)[nH]cc1S(=O)(=O)Nc1cccc(-c2csc(NN=Cc3cccc(Cl)c3)n2)c1` , tested on Soybean 15-LOX enzyme (Glycine max, UniProt P08170), showed IC50 of 1.8

The compound `COc1ccc(NC(=S)NN=C(C)c2cccc(NS(=O)(=O)c3c[nH]c(=S)[nH]c3=O)c2)cc1` , tested on Soybean 15-LOX enzyme (Glycine max, UniProt P08170), showed IC50 of 5.5

---

Data export: pIC50 values recorded with Soybean 15-LOX enzyme (Glycine max).
Remember, pIC50 is on a log scale: it is -log10 of the molar concentration.

N#Cc1c(-c2cccc(F)c2)cc(-c2cccc(NS(=O)(=O)c3c[nH]c(=S)[nH]c3=O)c2)[nH]c1=O [Compound 6c] :: 5.11
O=c1[nH]c(=S)[nH]cc1S(=O)(=O)Nc1cccc(-c2csc(NN=Cc3cccc(F)c3)n2)c1 [Compound 9c] :: 5.71
N#Cc1c(-c2cccc(Cl)c2)cc(-c2cccc(NS(=O)(=O)c3c[nH]c(=S)[nH]c3=O)c2)[nH]c1=O [Compound 6b] :: 5.12
N#Cc1c(-c2cccc(Cl)c2)cc(-c2cccc(NS(=O)(=O)c3c[nH]c(=S)[nH]c3=O)c2)nc1N [Compound 7b] :: 5.17

Record Cc1cccc(-c2cc(-c3cccc(NS(=O)(=O)c4c[nH]c(=S)[nH]c4=O)c3)nc(N)c2C#N)c1 [Compound 7d] , field pIC50: 5.18

---

# Lookup of reported melting point keyed by entry

See these solved cases before continuing.
CNC(=S)NN=C(C)c1cccc(NS(=O)(=O)c2c[nH]c(=S)[nH]c2=O)c1 :: 305 to 307 °C
COc1ccc(NC(=S)NN=C(C)c2cccc(NS(=O)(=O)c3c[nH]c(=S)[nH]c3=O)c2)cc1 :: 307 to 309 °C
N#Cc1c(-c2cccc(Cl)c2)cc(-c2cccc(NS(=O)(=O)c3c[nH]c(=S)[nH]c3=O)c2)[nH]c1=O :: 272 to 274 °C
Cc1cccc(/C=C/C(=O)c2cccc(NS(=O)(=O)c3c[nH]c(=S)[nH]c3=O)c2)c1 :: 287 to 289 °C
N#Cc1c(-c2cccc(F)c2)cc(-c2cccc(NS(=O)(=O)c3c[nH]c(=S)[nH]c3=O)c2)[nH]c1=O :: 287 to 289 °C

Record `O=c1[nH]c(=S)[nH]cc1S(=O)(=O)Nc1cccc(-c2csc(NN=Cc3cccc(Cl)c3)n2)c1` , field melting point: 320 to 322 °C

Record `N#Cc1c(-c2cccc(Cl)c2)cc(-c2cccc(NS(=O)(=O)c3c[nH]c(=S)[nH]c3=O)c2)nc1N` , field melting point: 257 to 259 °C

Record `O=C(/C=C/c1cccc(Cl)c1)c1cccc(NS(=O)(=O)c2c[nH]c(=S)[nH]c2=O)c1` , field melting point: 283 to 285 °C

Record `N#Cc1c(-c2cccc([N+](=O)[O-])c2)cc(-c2cccc(NS(=O)(=O)c3c[nH]c(=S)[nH]c3=O)c2)nc1N` , field melting point: 251 to 253 °C

Record `O=C(C=Cc1cccc([N+](=O)[O-])c1)c1cccc(NS(=O)(=O)c2c[nH]c(=S)[nH]c2=O)c1` , field melting point: 240 to 242 °C

---

# Lookup of reported melting point keyed by entry

N#Cc1c(-c2cccc([N+](=O)[O-])c2)cc(-c2cccc(NS(=O)(=O)c3c[nH]c(=S)[nH]c3=O)c2)[nH]c1=O :: 266 to 268 °C
O=C(/C=C/c1cccc(F)c1)c1cccc(NS(=O)(=O)c2c[nH]c(=S)[nH]c2=O)c1 :: 270 to 272 °C

--- query ---
Record `O=c1[nH]c(=S)[nH]cc1S(=O)(=O)Nc1cccc(-c2csc(NN=Cc3cccc(F)c3)n2)c1` , field melting point: 317 to 319 °C

---

outcome.measure: melting point

CC(=O)c1cccc(NS(=O)(=O)c2c[nH]c(=S)[nH]c2=O)c1 :: 318 to 320 °C
Cc1cccc(C=NNc2nc(-c3cccc(NS(=O)(=O)c4c[nH]c(=S)[nH]c4=O)c3)cs2)c1 :: 326 to 328 °C
N#Cc1c(-c2cccc(F)c2)cc(-c2cccc(NS(=O)(=O)c3c[nH]c(=S)[nH]c3=O)c2)nc1N :: 268 to 270 °C
CC(=NNC(=S)Nc1ccc(F)cc1)c1cccc(NS(=O)(=O)c2c[nH]c(=S)[nH]c2=O)c1 :: 313 to 315 °C

--- query ---
Record `Cc1cccc(-c2cc(-c3cccc(NS(=O)(=O)c4c[nH]c(=S)[nH]c4=O)c3)[nH]c(=O)c2C#N)c1` , field melting point: 282 to 284 °C
